Assay summary: Metabolic stability in mouse liver microsomes assessed as hepatic clearance at 1 uM measured upto 60 mins in presence of NADPH by LC-MS/MS analysis
Type: ADME, Microsome
Experimental parameters: 1 h

[
  {
    "Smiles entry": "COc1ccc2c(c1)[C@]13CCCC[C@@H]1[C@H](C2)N(C)CC3",
    "Unit of measure": "mL/min/kg",
    "CLH": 77
  },
  {
    "Smiles entry": "Nc1nc(N)c2c(ccc3c2ccn3Cc2ccc3scnc3c2)n1",
    "Unit of measure": "mL/min/kg",
    "CLH": 74.9
  },
  {
    "Smiles entry": "Cc1cc2c3c(N)nc(N)nc3ccc2n1Cc1nc2ccccc2s1",
    "Unit of measure": "mL/min/kg",
    "CLH": 38.3
  }
]

====

Assay summary: Metabolic stability in mouse liver microsomes assessed as intrinsic clearance at 1 uM measured upto 60 mins in presence of NADPH by LC-MS/MS analysis
Format: ADME, Microsome
Experimental parameters: read-out: CLH
The reader will find reported microsomal CLint at 1 µM values listed item by item below.

[
  {
    "Smiles entry": "Nc1nc(N)c2c(ccc3c2ccn3Cc2ccc3scnc3c2)n1",
    "microsomal CLint at 1 µM": "114 µL/min/mg"
  },
  {
    "Smiles entry": "Cc1cc2c3c(N)nc(N)nc3ccc2n1Cc1nc2ccccc2s1",
    "microsomal CLint at 1 µM": "16.9 µL/min/mg"
  },
  {
    "Smiles entry": "COc1ccc2c(c1)[C@]13CCCC[C@@H]1[C@H](C2)N(C)CC3",
    "microsomal CLint at 1 µM": "135 µL/min/mg"
  }
]

====

Documented remaining at 10 min, 5 ug/ml across a set of compounds
Assay summary: Stability in mouse plasma assessed as parent compound remaining at 5 ug/ml measured after 10 mins by LC-MS/MS analysis
Assay type: ADME, cell-free
Experimental parameters: at 5 µg/mL, read-out: Stability

[
  {
    "Smiles entry": "Cc1cc2c3c(N)nc(N)nc3ccc2n1Cc1nc2ccccc2s1",
    "remaining at 10 min, 5 ug/ml (%)": 99
  },
  {
    "Smiles entry": "Nc1nc(N)c2c(ccc3c2ccn3Cc2ccc3scnc3c2)n1",
    "remaining at 10 min, 5 ug/ml (%)": 96.7
  }
]

====

Test system: Escherichia coli
Assay summary: Antibacterial activity against Escherichia coli ATCC BAA-2340 incubated for 16 to 18 hrs by CLSI based broth dilution method
Type: functional
Experimental parameters: time 16-18 hrs
Measured property: MIC (µg/mL)

[
  {
    "Molecule": "Nc1nc(N)c2c(ccc3c2ccn3Cc2cccc3cccnc23)n1",
    "Operator symbol": ">",
    "Experimental result": 64
  },
  {
    "Molecule": "Nc1nc(N)c2c(ccc3c2ccn3Cc2nc3ccccc3s2)n1",
    "Operator symbol": ">",
    "Experimental result": 64
  },
  {
    "Molecule": "C[C@H]1COc2c(N3CCN(C)CC3)c(F)cc3c(=O)c(C(=O)O)cn1c23 [LEVOFLOXACIN ANHYDROUS]",
    "Operator symbol": "=",
    "Experimental result": 32
  },
  {
    "Molecule": "Nc1nc(N)c2c(ccc3c2ccn3Cc2cccc3ccccc23)n1",
    "Operator symbol": ">",
    "Experimental result": 64
  },
  {
    "Molecule": "COc1cc(Cc2cnc(N)nc2N)cc(OC)c1OC",
    "Operator symbol": "=",
    "Experimental result": 64
  }
]
